# test.target: Ubiquitin carboxyl-terminal hydrolase 17-like protein 5 (Homo sapiens)
# assay: ubiquitin-specific protease 17 DUB inhibitors, concentration-effect assay, cell-free, verification of initial screening actives (AID 1645864)
# experimental.conditions: purified USP17, ubiquitin-rhodamine cleavage fluorescence, 3 h
Calls of active or inactive are those of the source.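 How the source made its calls: active means maximal inhibition of USP17 at or above 30% in the confirmation dose-response, a value not among the printed readouts; inactive means the rest.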
Form entry, call: pick from yes (1) = active, no (0) = inactive

Reference set, count: 6
INSERT INTO assay_data (compound, class_label) VALUES
  ('Cc1cccc(NC(=O)Cn2c(N3CCOCC3)nc3cc(C)n(C)c3c2=O)c1', 'yes (1)'),
  ('O=C(NC1(O)C(=O)c2ccccc2C1=O)c1cccc2c1-c1ccccc1C2=O', 'yes (1)'),
  ('O=C(Nc1ccc2c(c1)OCCO2)c1cc(CN2CCOCC2)on1', 'no (0)'),
  ('COc1ccc(N2C(=O)[C@@H]3[C@H]4c5ccccc5C=CN4C(C(=O)Nc4ccc5c(c4)OCO5)[C@@H]3C2=O)cc1 (some centres not stated)', 'no (0)'),
  ('Cc1cccc(NC(=O)CSc2ncnc3c2sc2nc(CC(C)C)c4c(c23)CCC4)c1', 'yes (1)'),
  ('COc1ccc(OC)c(NC(=O)C2=C(C)Nc3ncnn3C2c2ccccc2OCc2ccc(C)cc2)c1 (configuration not stated)', 'yes (1)');

Prompt: Which outcome did this test record for the compound O=C(C(c1ccccc1)c1ccccc1)N1CCC(c2nc3c(nnn3Cc3c(F)cccc3Cl)c(=O)[nH]2)CC1 ?
Completion: yes (1)

Prompt: Which outcome did this test record for the compound COc1cc(C)cc2c1C(=O)c1c(cc(O)c(Cl)c1O)C2=O ?
Completion: yes (1)

Prompt: Which outcome did this test record for the compound Cc1ccc(NC(=O)/C=C/c2cccc(C(F)(F)F)c2)c(O)c1 ?
Completion: yes (1)

Prompt: Which outcome did this test record for the compound CC(=O)Nc1cc2cc(-n3cccc3)ccc2oc1=O ?
Completion: yes (1)

Prompt: Which outcome did this test record for the compound CCc1nc(-c2cc(C(=O)N3CCOCC3)c3ccccn23)cs1 ?
Completion: no (0)
